Test Summary: AUC (0 to infinity) in muscle of healthy human at 200 mg/l administered via microdialysis probe up to 12 hrs
Format: ADME, tissue-based, Muscle tissue
Set-up: time infinity
Quantity Measured: AUC(0-inf) (ng·h/mL)
Numeric only. Scale: ng·h/mL

Asked: State the recorded AUC(0-inf) for this entry: Nc1nc(/C(=N/O)C(=O)N[C@@H]2C(=O)N3C(C(=O)O)=C(/C=C4\CCN([C@@H]5CCNC5)C4=O)CS[C@H]23)ns1 [CEFTOBIPROLE]
Given back: 53200
